measuredTarget: T1, HLA-A*02:01 on T2 cells alone (no peptide added) (human)
T1 construct: TAP-deficient T2 cells without pulsed peptide; negative control target, and the HLA molecule whose stabilisation by peptides is read in the T2 stabilization assay; also called HLA-A*02 molecule; HLA-A2 molecule
testProtocol: flow cytometry, phage on T2 cells
measurementName: binding result

[[record]]
binder = "EXT017-28 scFv phage clone (scFv, full-length scFv with His+HA tags; also called EXT017-28 phage; phage clone #28) scFv: QSVLTQPPSVSGAPGQRVTISCTGSSSNIGAGYDVHWYQQLPGTAPKLLIYGNSDRPSGVPDRFSGSKSGTSASLAITGLQAEDEADYYCQSYDSSLSGYVFGTGTKVTVLGSRGGGGSGGGGSGGGGSLEMAQMQLVQSGAEVKKPGSSVKVSCKASGGTFSTYAISWVRQAPGQGLEWMGGIIPIFGTANYAQKFQGRVTITADKSTSTAYMEVRNLRSEDTAVYYCARAEYVYGEYDQWGQGTLVTVSSTSGQAGQHHHHHHGAYPYDVPDYAS"
measurement = "no binding"

[[record]]
binder = "EXT017-9 scFv phage clone (scFv, also called phage clone #9) scFv: QSALTQPASASGSPGQSVTISCTGTSSDVGGYNYVSWYQQHPGKAPKLMIYEVSKRPSGVPDRFSGSKSGNTASLTVSGLQAEDEADYYCSSYAGSNNVVFGGGTKLTVLGSRGGGGSGGGGSGGGGSLEMAEVQLVQSGAEVKKPGASVKISCKASRYTFTNYYIHWVRQAPGQGLEWMGIINPSGGSTTYPQNFQGRLTMTRDTSTSTVYMELSSLRSEDTAMYYCARGWSGYDPGDFWGQGTLVTVSSTSGQAGQHHHHHHGAYPYDVPDYAS"
measurement = "no binding"

[[record]]
binder = "EXT017-21 scFv phage clone (scFv, also called phage clone #21) scFv: SYELTQPPSVSVAPGQTASMTCGGNNIGSKSVHWYQQKPSQAPVMVVHDDSERPSGIPERISGSKSGNTATLTISRVEAGDEADYYCQVWDSSSDHVIFGGGTKLTVLGSRGGGGSGGGGSGGGGSLEMAQVQLVQSGAEVKKPGASVKVSCKASGYTFTNYYIHWVRQAPGQGLEWMGIIRPSGGITNYAQKFQGRVSMTRDTSTSTVYMELSSLRSEDTAVYYCARSWMSDSYYDGWGQGTLVTVSSTSGQAGQHHHHHHGAYPYDVPDYAS"
measurement = "no binding"

